Target: TrkA receptors (Homo sapiens)
Sequence (P04629 33-796): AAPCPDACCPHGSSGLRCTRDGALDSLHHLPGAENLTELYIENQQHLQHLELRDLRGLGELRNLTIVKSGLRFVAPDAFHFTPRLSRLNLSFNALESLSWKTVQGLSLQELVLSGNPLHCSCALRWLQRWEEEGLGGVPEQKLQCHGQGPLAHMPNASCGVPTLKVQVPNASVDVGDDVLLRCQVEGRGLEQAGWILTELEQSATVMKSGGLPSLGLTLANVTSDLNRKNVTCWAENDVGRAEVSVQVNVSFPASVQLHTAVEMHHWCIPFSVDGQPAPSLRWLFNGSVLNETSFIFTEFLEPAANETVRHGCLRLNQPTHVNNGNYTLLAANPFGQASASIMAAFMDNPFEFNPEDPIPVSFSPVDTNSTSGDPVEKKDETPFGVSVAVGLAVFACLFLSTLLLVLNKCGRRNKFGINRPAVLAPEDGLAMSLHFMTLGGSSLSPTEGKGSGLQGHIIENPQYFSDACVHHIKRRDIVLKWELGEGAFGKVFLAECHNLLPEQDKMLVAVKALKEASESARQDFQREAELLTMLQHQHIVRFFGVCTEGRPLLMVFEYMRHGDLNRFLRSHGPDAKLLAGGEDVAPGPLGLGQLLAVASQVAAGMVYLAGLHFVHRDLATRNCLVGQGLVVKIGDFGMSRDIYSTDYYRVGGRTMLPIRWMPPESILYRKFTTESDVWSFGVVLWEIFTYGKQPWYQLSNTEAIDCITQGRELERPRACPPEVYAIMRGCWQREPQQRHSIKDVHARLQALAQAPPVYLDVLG

compound	unitsOfMeasure	Kd
O=C(Cc1ccccc1)N[C@H](CNc1nc(CN2CCN(C(=O)Cc3ccccc3)CC2)cs1)c1ccccc1 [THPI-244]	µM	5.2

###

Item-by-item account of % BBB
Experiment: BBB of THPI-244 analogs
testReadout: % BBB (%)

compound	measuredNumber
c1ccc(CCNc2nc(CN3CCCCC3)cs2)cc1 [TPI-2336-100]	5.9
c1ccc(CCNc2nc(CN3CCOCC3)cs2)cc1 [TPI-2336-99]	5.6
O=C(Cc1ccccc1)N[C@H](CNc1nc(CN2CCN(C(=O)Cc3ccccc3)CC2)cs1)c1ccccc1 [THPI-244]	0.1
Cc1cnc(C(=O)N[C@H](CNc2nc(CN3CCNCC3)cs2)c2ccccc2)cn1 [TPI-2336-55]	1.0
